# System: SK-MEL-2 melanoma
# assayText: NCI-60 one-dose screen, 48 h (100 = growth as untreated, 0 = no growth, -100 = all killed)
# testParameters: 10 µM
The panel holds about 83,000 compounds, 20% with a hit somewhere; the sample as a whole holds those more often. Activity calls are given as the source filed them. The calls were made as follows: active = growth percent below 10; inactive = the rest.
measuredAttribute: growth

// solved cases for growth follow
Nc1ncn([C@@H]2O[C@H](CO)[C@@H](O)[C@H]2O)c(=O)n1    -21.5% (active)
O=C(CC(c1ccccc1)N1CCOCC1)c1ccccc1 (configuration not stated)    94.7% (inactive)
CCOC(=O)N1C/C(=C/c2ccc(OC)cc2)C(=O)/C(=C/c2ccc(OC)cc2)C1    75.1% (inactive)
O=C(CC(C(=O)c1ccccc1)N1CCOCC1)c1ccccc1 (configuration not stated)    102% (inactive)
O=C1/C(=C/c2ccc(Cl)cc2)SC(=Nc2ccc(Cl)cc2)N1Cc1nc2ccccc2[nH]1    88.4% (inactive)

-- ask Tell me its growth given "COc1ccc(-c2cc(/C=C3\C(=O)Nc4ccc(Cl)cc43)[nH]n2)cc1OC" as the entry.
-- reply 99.5% (inactive)

-- ask Specify growth for "COc1cc(Nc2ncnc(Nc3ccc4c(n3)NC(=O)C(C)(C)O4)n2)cc(OC)c1OC" and stop.
-- reply 46.5% (inactive)

-- ask Tell me measured growth for "Fc1ccc(-c2nnc(-c3c(-c4ccc(F)cc4)nc4ccccn34)o2)cc1" please.
-- reply 120% (inactive)

-- ask Supply recorded growth for "N=C(N)c1ccc(-c2ccc(-c3cccs3)o2)cc1" here.
-- reply -7.14% (active)

-- ask Specify measured growth for "CSc1nn(-c2ccccc2)c2ncnc(Oc3ccc(C)cc3)c12" .
-- reply 75.3% (inactive)

-- ask Could you please provide reported growth for "COc1cc(Cl)cc(-c2nn(-c3cccc(NC(=O)Nc4cc(C(F)(F)F)cc(C(F)(F)F)c4)c3)cc2-c2ccncc2)c1" ? Thanks!
-- reply -38.1% (active)

-- ask Given "S=c1[nH]ccn1-c1c(Cl)cccc1Cl" , respond with its growth.
-- reply 140% (inactive)

-- ask Give the value of growth reported for the following: "CCC(=O)N1C/C(=C/c2ccc(Br)cc2)C(=O)/C(=C/c2ccc(Br)cc2)C1"
-- reply -33.8% (active)

-- ask Please look at this compound and report its growth: COc1cc(C2CC(c3ccc(Nc4ccnc5cc(Cl)ccc45)cc3)=NN2c2ccc(Cl)cc2)cc(OC)c1OC (configuration not stated)
-- reply 55.2% (inactive)
